Assay: Stability of JAK3 Covalent Inhibitors in Human Whole Blood
Assay type: in vitro ADME
Conditions: both sexes, 1 μM test compound, 37° C., 180 min incubation, read-out: Human blood stability t1/2
Text: Stability of JAK3 Covalent Inhibitors in Rat and Human Whole Blood Rat blood was collected from 3 male Sprague-Dawley rats (200-250 g, Charles River Laboratories) and pooled for each study. Human blood was collected from healthy subjects at the Occupational Health & Wellness Center at Pfizer, Groton, Conn. and pooled for each study. Both rat and human blood was collected freshly into K2-EDTA tubes and kept on ice. […]
Assign half-life at 1 μM to each entry below.
Just the number in h, nothing appended.

State the recorded half-life at 1 μM for this entry: C=CC(=O)N1CC[C@H](Nc2cnc3[nH]cc(C(=O)NCC)c3n2)[C@@H](O)C1 (racemic) [Example 31]
4.9

Quick one: half-life at 1 μM of C=CC(=O)N1CC[C@@H](Nc2cnc3[nH]cc(C(=O)NCC)c3n2)[C@@H](C)C1 (racemic) [Example 37] ?
5.08

I'd like to know its half-life at 1 μM. The molecule in question is C=CC(=O)N1CCC(Oc2cnc3[nH]cc(C(=O)N[C@H](C)CC)c3n2)CC1 [Example 227]
4.5

----------
Would you mind telling me the reported IC50 of each entry?
Target: JAK3 enzyme (Homo sapiens, UniProt P52333)
Sequence (P52333 whole entry, species assumed): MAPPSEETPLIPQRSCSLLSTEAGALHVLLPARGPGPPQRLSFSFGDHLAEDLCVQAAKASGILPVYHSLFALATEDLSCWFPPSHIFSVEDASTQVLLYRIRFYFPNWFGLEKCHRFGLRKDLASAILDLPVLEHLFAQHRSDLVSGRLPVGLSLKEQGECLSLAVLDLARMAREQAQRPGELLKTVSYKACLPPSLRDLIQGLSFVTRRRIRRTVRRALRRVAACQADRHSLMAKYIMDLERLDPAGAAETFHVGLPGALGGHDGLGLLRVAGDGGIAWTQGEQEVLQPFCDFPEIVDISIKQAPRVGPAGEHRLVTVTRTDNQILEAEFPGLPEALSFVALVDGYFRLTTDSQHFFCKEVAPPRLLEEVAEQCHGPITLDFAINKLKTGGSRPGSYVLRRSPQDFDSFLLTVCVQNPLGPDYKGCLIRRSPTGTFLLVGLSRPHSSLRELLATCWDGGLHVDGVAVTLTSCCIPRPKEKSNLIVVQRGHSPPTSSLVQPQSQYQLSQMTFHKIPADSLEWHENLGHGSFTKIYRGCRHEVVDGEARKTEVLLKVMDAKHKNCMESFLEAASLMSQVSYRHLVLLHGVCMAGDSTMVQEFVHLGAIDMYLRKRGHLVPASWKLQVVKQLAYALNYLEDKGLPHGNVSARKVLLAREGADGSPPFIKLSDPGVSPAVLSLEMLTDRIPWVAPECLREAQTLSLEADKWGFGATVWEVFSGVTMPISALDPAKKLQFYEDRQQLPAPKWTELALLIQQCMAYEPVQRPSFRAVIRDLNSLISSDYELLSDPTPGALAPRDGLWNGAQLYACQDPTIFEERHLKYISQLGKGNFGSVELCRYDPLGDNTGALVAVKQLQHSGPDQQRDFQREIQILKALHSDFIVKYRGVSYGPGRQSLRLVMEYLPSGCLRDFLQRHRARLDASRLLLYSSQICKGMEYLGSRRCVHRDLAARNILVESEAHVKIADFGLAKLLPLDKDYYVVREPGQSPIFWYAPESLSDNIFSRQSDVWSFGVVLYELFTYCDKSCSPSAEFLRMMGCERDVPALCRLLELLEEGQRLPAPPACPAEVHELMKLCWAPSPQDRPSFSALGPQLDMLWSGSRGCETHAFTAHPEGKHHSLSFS
Test: JAK Caliper Enzyme Assay at 4 μM ATP
Format: biochemical
Express it in nM; write the number only.

Query IC50 on JAK3 enzyme (Homo sapiens, UniProt P52333) for C=CC(=O)N1CC[C@@H](CNc2cnc3[nH]cc(C(=O)N[C@@H](C)COC)c3n2)C1 (single isomer, unassigned) [Example 17]
0.319

Short answer please: IC50, JAK3 enzyme (Homo sapiens, UniProt P52333), entry C=CC(=O)N1CCN(c2cnc3[nH]cc(C(=O)N[C@@H]4COc5ccccc5C4)c3n2)CC1(C)C [Example 168]
7.76

Lab note: need IC50 for C=CC(=O)N1C[C@@H](CC)[C@@H](Nc2cnc3[nH]cc(C(=O)NCCOC)c3n2)C1 [Example 257] on JAK3 enzyme (Homo sapiens, UniProt P52333), anyone have it?
55.3

Test system JAK3 enzyme (Homo sapiens, UniProt P52333); read-out IC50; what value for C=CC(=O)N1CC[C@@H](Nc2cnc3[nH]cc(C(=O)NCC)c3n2)[C@H](O)C1 (single isomer, unassigned) [Example 33] ?
0.23

// map C=CC(=O)N1C[C@@H](C)[C@@H](Nc2cnc3[nH]cc(C(=O)NCC)c3n2)C1 (stereo in doubt) [Example 248] to recorded IC50 (system: JAK3 enzyme (Homo sapiens, UniProt P52333))
48.7

For the record C=CC(=O)N1CCN(c2cnc3[nH]cc(C(=O)NC4CC(F)(F)C4)c3n2)CC1(C)C [Example 325] , what value of IC50 is listed for JAK3 enzyme (Homo sapiens, UniProt P52333)?
12.8

Hello, I am looking for reported IC50 with JAK3 enzyme (Homo sapiens, UniProt P52333) for C=CC(=O)N1CC[C@H](Nc2cnc3[nH]cc(C(=O)NCC(F)(F)F)c3n2)C1 [Example 231] . Could you help?
0.322

----------
Assay: Stability of JAK3 Covalent Inhibitors in Human Whole Blood
Type: in vitro ADME
Details: both sexes, 1 μM test compound, 37° C., 180 min incubation, read-out: Human blood stability t1/2
For each of the molecules below, state its half-life at 1 μM.

Name the recorded half-life at 1 μM for C=CC(=O)N1CCCC(Oc2cnc3[nH]cc(C(=O)N[C@@H](C)COC)c3n2)C1 (mixture of isomers) .
2.65 h

Item `C=CC(=O)N(C)C1CN(c2cnc3[nH]cc(C(=O)N[C@@H](C)COC)c3n2)C1` has what recorded half-life at 1 μM?
1.38 h

Given the molecule C=CC(=O)N1C[C@@H](Nc2cnc3[nH]cc(C(=O)N[C@H](C)COC)c3n2)CC[C@H]1C (single isomer, unassigned) [Example 70] , what is its reported half-life at 1 μM?
> 6 h

I have this molecule here, `C=CC(=O)N1CCC(Oc2cnc3[nH]cc(-c4nnc[nH]4)c3n2)CC1` , and I need its recorded half-life at 1 μM.
> 6 h

Name the recorded half-life at 1 μM for `C=CC(=O)N1CC[C@@H](Nc2cnc3[nH]cc(C(=O)NCC(C)(F)F)c3n2)[C@@H](OC)C1` .
> 6 h

Can you look up the measured half-life at 1 μM of C=CC(=O)N1C[C@H](Nc2cnc3[nH]cc(C(=O)N[C@H](C)COC)c3n2)CC[C@@H]1C (single isomer, unassigned) for me?
> 6 h

// half-life at 1 μM lookup, key: C=CC(=O)N1CC[C@H](CNc2cnc3[nH]cc(C(=O)N[C@@H](C)COC)c3n2)C1 (single isomer, unassigned)
> 6 h
